Tested on: HEK-293T
experiment: Multiplex assay against HEK293T
Type: toxicity, cell-based
measurement-conditions: human, 24 h, 1 µM, compound concentration 1 uM, replicate 2
Each entry gets label 0 if its Population Mitochondria Different-Phenotype (%) stays under 10%, and label 1 if its Population Mitochondria Different-Phenotype (%) is 10% or above.

Known results for compounds:
compound | class-label
COc1cc2c(Nc3ccc(NC(=O)c4ccccc4)cc3)ncnc2cc1OCCCN1CCOCC1 | label 1
CCCn1c(=O)c2[nH]c(C34CC5CC(CC3C5)C4)nc2n(CCC)c1=O | label 1
COc1cc(N2CCC(N(C)C)CC2)ccc1Nc1ncc(Cl)c(Nc2ccccc2P(C)(C)=O)n1 | label 0
O=C(O)c1ccc2cc(-c3ccc(O)c(C45CC6CC(CC(C6)C4)C5)c3)ccc2c1 | label 1
CCOc1cc2ncc(C#N)c(Nc3ccc(OCc4cccc(F)c4)c(Cl)c3)c2cc1NC(=O)/C=C/CN(C)C | label 0

Qu. Given CNC(=O)c1cc(Oc2ccc(NC(=O)Nc3cc(C(C)(C)C)nn3-c3ccc4ncccc4c3)c(F)c2)ccn1 , state whether its Population Mitochondria Different-Phenotype (%) is at least 10%.
Ans. label 0

Qu. Given N#Cc1cnc(Nc2cc(NC[C@H]3CNCCO3)c(C(F)(F)F)cn2)cn1 , state whether its Population Mitochondria Different-Phenotype (%) is at least 10%.
Ans. label 0

Qu. Given Cl.Cl.NC1(c2ccc(-c3nc4ccn5c(=O)[nH]nc5c4cc3-c3ccccc3)cc2)CCC1 , state whether its Population Mitochondria Different-Phenotype (%) is at least 10%.
Ans. label 0

Qu. Given CCC(=O)O[C@]1(C(=O)SCF)[C@H](C)C[C@H]2[C@@H]3C[C@H](F)C4=CC(=O)C=C[C@]4(C)[C@@]3(F)[C@@H](O)C[C@@]21C [FLUTICASONE PROPIONATE] , state whether its Population Mitochondria Different-Phenotype (%) is at least 10%.
Ans. label 1

Qu. Given c1ccc2oc(-c3csc(C4CCN(Cc5nc6ncccc6[nH]5)CC4)n3)cc2c1 , state whether its Population Mitochondria Different-Phenotype (%) is at least 10%.
Ans. label 1

Qu. Given CNC(=O)c1nn(C)c2c1C(C)(C)Cc1cnc(Nc3ccc(N4CCN(C)CC4)cc3)nc1-2 , state whether its Population Mitochondria Different-Phenotype (%) is at least 10%.
Ans. label 1

---

// Population Fragmented Nuclei (%) lookup, one value per entry
Test system: HEK-293T
experiment: Multiplex assay against HEK293T
Assay type: toxicity, cell-based
measurement-conditions: human, 24 h, 1 µM, compound concentration 1 uM, replicate 1

Consider the following illustrative entries.
molecule | Population Fragmented Nuclei (%)
CCc1cc2c(cc1CC)CC(NC[C@H](O)c1ccc(O)c3[nH]c(=O)ccc13)C2 | 10%
O=C(O)c1ccc2cc(-c3ccc(O)c(C45CC6CC(CC(C6)C4)C5)c3)ccc2c1 | 5%
CNC(=O)c1nn(C)c2c1C(C)(C)Cc1cnc(Nc3ccc(N4CCN(C)CC4)cc3)nc1-2 | 21%
COc1cc(N2CCC(N(C)C)CC2)ccc1Nc1ncc(Cl)c(Nc2ccccc2P(C)(C)=O)n1 | 17%
CCC(=O)O[C@]1(C(=O)SCF)[C@H](C)C[C@H]2[C@@H]3C[C@H](F)C4=CC(=O)C=C[C@]4(C)[C@@]3(F)[C@@H](O)C[C@@]21C [FLUTICASONE PROPIONATE] | 10%
c1ccc2oc(-c3csc(C4CCN(Cc5nc6ncccc6[nH]5)CC4)n3)cc2c1 | 21%
Cc1nc(Cc2cccc(C(F)(F)F)c2)sc1-c1ccc(C(N)=O)nc1 [TP-024n] | 9%

Query molecule follows.
Qu. Determine its reported Population Fragmented Nuclei (%): CC(C)N1CCC(C)(C)c2cc(C#Cc3ccc(C(=O)O)cc3)ccc21
Ans. 13%

---

// Population Mitochondria Different-Phenotype (%) lookup, one value per entry
Tested on: Fibroblast
experiment: Multiplex assay against human fibroblast
Type: toxicity, cell-based
measurement-conditions: 24 h, 10 µM, compound concentration 10 uM, replicate 1
Provide the reading as a plain figure in %.

molecule | number
CC(=O)c1cc(-c2cc(C(=O)NC3CC3)ccc2C)c2ncccn12 | 9
CCOc1cc2ncc(C#N)c(Nc3ccc(OCc4cccc(F)c4)c(Cl)c3)c2cc1NC(=O)/C=C/CN(C)C [HKI-357] | 7
Cc1nc(Cc2cccc(C(F)(F)F)c2)sc1-c1ccc(C(N)=O)nc1 [TP-024n] | 12

Query molecule follows.
Qu. Determine its reported Population Mitochondria Different-Phenotype (%): CC(C)(C)c1cnc(CSc2cnc(NC(=O)C3CCNCC3)s2)o1 [BMS-387032]
Ans. 29

---

Test system: Fibroblast
experiment: Multiplex assay against human fibroblast
Format: toxicity, cell-based
measurement-conditions: 48 h, 1 µM, compound concentration 1 uM, replicate 2
quantity: Population Tubulin-Different-Phenotype (%)
Provide the reading as a plain figure in %.

Consider the following illustrative entries.
molecule | number
COc1ccc(NS(=O)(=O)c2sc3ccc(Cl)cc3c2C)cc1N1CCNCC1.Cl | 49
Cc1nc(Cc2cccc(C(F)(F)F)c2)sc1-c1ccc(C(N)=O)nc1 [TP-024n] | 35
Nc1ccc(C(=O)Nc2cccc(-c3nc(N4CCOCC4)c4oc5ncccc5c4n3)c2)cn1 | 76
Nc1nc2c(c(N3CCNCC3)n1)CCC1=C2[C@@H]2CCCC[C@@H]2O1 | 36
CCn1c(-c2nonc2N)nc2cnc(Oc3cccc(NC(=O)c4ccc(OCCN5CCOCC5)cc4)c3)cc21 [GSK-269962A] | 22

Qu. Determine its reported Population Tubulin-Different-Phenotype (%): CC(C)N1CCC(C)(C)c2cc(C#Cc3ccc(C(=O)O)cc3)ccc21
Ans. 25

Qu. Determine its reported Population Tubulin-Different-Phenotype (%): CCCn1c(=O)c2[nH]c(C34CC5CC(CC3C5)C4)nc2n(CCC)c1=O
Ans. 70

---

Test system: Fibroblast
experiment: Multiplex assay against human fibroblast
Format: toxicity, cell-based
measurement-conditions: 48 h, 1 µM, compound concentration 1 uM, replicate 1
// Population Hoechst High Intensity Objects (%) lookup, one value per entry
Provide the reading as a plain figure in %.

compound | number
CNc1oc(-c2cccc3ccccc23)nc1C#N | 77
CCC(=O)O[C@]1(C(=O)SCF)[C@H](C)C[C@H]2[C@@H]3C[C@H](F)C4=CC(=O)C=C[C@]4(C)[C@@]3(F)[C@@H](O)C[C@@]21C [FLUTICASONE PROPIONATE] | 24

Qu. Determine its reported Population Hoechst High Intensity Objects (%): Cc1cc2c(cc1N1C(=O)c3cccc4c(CCCO)ccc(c34)C1=O)n(C)c(=O)n2C
Ans. 21

Qu. Determine its reported Population Hoechst High Intensity Objects (%): COc1cc2c(NC3CCN(C(C)C)CC3)nc(N3CCC(F)(F)CC3)nc2cc1OCCCN1CCCC1
Ans. 26

Qu. Determine its reported Population Hoechst High Intensity Objects (%): Nc1nc2c(c(N3CCNCC3)n1)CCC1=C2[C@@H]2CCCC[C@@H]2O1
Ans. 34

Qu. Determine its reported Population Hoechst High Intensity Objects (%): O=C(O)c1ccc2cc(-c3ccc(O)c(C45CC6CC(CC(C6)C4)C5)c3)ccc2c1
Ans. 43

Qu. Determine its reported Population Hoechst High Intensity Objects (%): Cl.Cl.Nc1ncnc2c1c(-c1cccc(OCc3ccccc3)c1)cn2[C@H]1C[C@@H](CN2CCC2)C1
Ans. 28

Qu. Determine its reported Population Hoechst High Intensity Objects (%): COc1ccc(NS(=O)(=O)c2sc3ccc(Cl)cc3c2C)cc1N1CCNCC1.Cl
Ans. 20

Qu. Determine its reported Population Hoechst High Intensity Objects (%): CCCn1c(=O)c2[nH]c(C34CC5CC(CC3C5)C4)nc2n(CCC)c1=O
Ans. 14

Qu. Determine its reported Population Hoechst High Intensity Objects (%): CC(C)N1CCC(C)(C)c2cc(C#Cc3ccc(C(=O)O)cc3)ccc21
Ans. 45

Qu. Determine its reported Population Hoechst High Intensity Objects (%): CC(=O)c1cc(-c2cc(C(=O)NC3CC3)ccc2C)c2ncccn12
Ans. 10

---

// Population Hoechst High Intensity Objects (%) lookup, one value per entry
Test system: Fibroblast
experiment: Multiplex assay against human fibroblast
Type: toxicity, cell-based
measurement-conditions: 12 h, 1 µM, compound concentration 1 uM, replicate 1
Provide the reading as a plain figure in %.

Consider the following illustrative entries.
compound | number
CC(C)(C)c1cnc(CSc2cnc(NC(=O)C3CCNCC3)s2)o1 [BMS-387032] | 12
CCc1cc2c(cc1CC)CC(NC[C@H](O)c1ccc(O)c3[nH]c(=O)ccc13)C2 [INDACATEROL] | 9

Qu. Give Fibroblast Population Hoechst High Intensity Objects (%) for the following compound: c1ccc2oc(-c3csc(C4CCN(Cc5nc6ncccc6[nH]5)CC4)n3)cc2c1
Ans. 15

Qu. Give Fibroblast Population Hoechst High Intensity Objects (%) for the following compound: N#Cc1cnc(Nc2cc(NC[C@H]3CNCCO3)c(C(F)(F)F)cn2)cn1 [SRA-737]
Ans. 13

Hey, just so you know, these numbers are from ChEMBL document CHEMBL4689842.
